Attribute: Survival (days) po
tested on: ANKA strain of P. berghei; test: single dose STI in vivo screen in infected mice; design: species or system Plasmodium berghei; details: single 10 mg/kg po in 3% ethanol and 7% Tween 80; untreated control 5.6 ± 0.3
measured parameter: Survival (days) po

1. O=C(N1CCCC1)N1CCC2(CC1)OOC1(O2)C2CC3CC(C2)CC1C3 (stereo not drawn) :: 7.3
2. N=C(N)NC[C@H]1CC[C@]2(CC1)OOC1(O2)C2CC3CC(C2)CC1C3 (stereo partly drawn) :: 6.0
3. NC(=O)CNC[C@H]1CC[C@]2(CC1)OOC1(O2)C2CC3CC(C2)CC1C3 (stereo partly drawn) :: 8.7
4. CN(C)S(=O)(=O)N1CCC2(CC1)OOC1(O2)C2CC3CC(C2)CC1C3 (stereo not drawn) :: 8.7
5. O=C(O)c1ccc([C@H]2CC[C@]3(CC2)OOC2(O3)C3CC4CC(C3)CC2C4)cc1 (stereo partly drawn) :: 6.3
6. O=C(NO)c1ccc([C@H]2CC[C@]3(CC2)OOC2(O3)C3CC4CC(C3)CC2C4)cc1 (stereo partly drawn) :: 6.0
7. O=[N+]([O-])c1cccc(C2(c3cccc([N+](=O)[O-])c3)OOC3(O2)C2CC4CC(C2)CC3C4)c1 (stereo not drawn) :: 5.7
8. CN1CCN(C(=O)C[C@H]2CC[C@]3(CC2)OOC2(O3)C3CC4CC(C3)CC2C4)CC1 (stereo partly drawn) :: 8.3
9. N=C(N)NN=C1CCC2(CC1)OOC1(O2)C2CC3CC(C2)CC1C3 (stereo not drawn) :: 8.0
